# test-name: soluble on expression in E. coli; label from the status in PepcDB or PDB records
measure-name: soluble on expression in E. coli

sequence-string	experimental-value
MSTQEVNITLTDFINQLDSNAEQVSFEQVMKVISENYNYLPATFNNGDLFNEAGTNEGSCKIFYFAKLNNLSEQQTLACFGRFYREDVVNNPQGNDHGNIRNFMQSGWSKVEFNSVALTPLT	not soluble
MSLASIRTRIMILSDTHAQRFQPGLEPLEPVDLVIHCGDLTNNSTLRDYREAIHLLDSIKAPLKIVIAGNHDFSLDDKAYRRKIRETCRINQENLSGAIKAEYGQVGEAQQILLEAVAKGITFLSEGPHQLQLPSNSVLELYVSPYTPTHNCPGWGFQYDGIHDFNIKQGTDIVITHGPPLGIMDLTSNNERIGCPQLFAAVARAQPRVHCFGHVHEGWGAKLVSWRPNEGHHHHHH	not soluble

----------
# test-name: soluble on expression in E. coli; label from the status in PepcDB or PDB records

sequence-string	soluble on expression in E. coli
MEKENTNGGSVYVTVDGHFKPVHVSMKGTGEKGFLEFMLEDVEKALKETEMPVIGMMYYNVPDMGIVPHLWEGNNDDYLQRLEKAMDGHGIKLHRYLRLSEVVYCL	not soluble
MGHHHHHHSHMAFFRRSLMTENAVLQLRAERIARATRPFLARGNRVRRCQRCLLPEKLCLCSTITPAQAKSRFCLLMFDTEPMKPSNTGRLIADILPDTVAFQWSRTEPSQDLLELVQNPDYQPMVVFPASYADEQREVIFTPPAGKPPLFIMLDGTWPEARKMFRKSPYLDNLPVISVDLSRLSAYRLREAQAEGQYCTAEVAIALLDMAGDTGAAAGLGEHFTRFKTRYLAGKTQHLGSITAEQLESV	soluble
MAHHHHHHVGTGSNDDDDKAGLVEGQNYTVLANPIPQQQAGKVEVLEFFGYFCPHCAHLEPVLSKHAKSFKDDMYLRTEHVVWQKEMLTLARLAAAVDMAAADSKDVANSHIFDAMVNQKIKLQNPEVLKKWLGEQTAFDGKKVLAAYESPESQARADKMQELTETFQIDGTPTVIVGGKYKVEFADWESGMNTIDLLADKVREEQKAAQ	soluble
SVTDNNGAVKFPQLCKFCDVRFSTCDNQKSCMSNCSITSICEKPQEVCVAVWRKNDENITLETVCHDPKLPYHDFILEDAASPKCIMKEKKKPGETFFMCSCSSDECNDNIIFSEEYNTSNPD	soluble
LAIFLIDLPPSDMERRLGDALTVYVDAMRYPRGTETLRAPMWLEHIRRRGWQAVAAVEVTAAEQAEAADTTALPSAAELSNAPMLGVAYGYPGAPGQWWQQQVVLGLQRSGFPRLAIARLMTSYFELTELHILPRAQGRGLGEALARRLLAGRDEDNVLLSTPETNGEDNRAWRLYRRLGFTDIIRGYHFAGDPRAFAILGRTLPL	not soluble
MLRTEHYAFLPCISRALEERDSLGIRRELRARQQRLSMQQSRSKLGRVCVTGANSPLGQELVGALTRTPDPSLRPDAIGVIGARDPIESHSAGAGLHFPGPGVDFLECAATDLEHYNPRTLFSINDDDLGLRRRSIFRENQVVIDLLRAQGETNEPRSKTRLVLVTLLGCGDSEDAIPSQAFDVLRPLLLELSRVEQYVRESGLPYTIVRPGALEHGDADSRAIVSESKVGFGTIHRSTLAHLLLNVAASEKAVNKTLMALDMNRLLVAAPYVRPFEVWESPPFEVFDL	soluble
MGSDKIHHHHHHMNLKLDHIIHYLHQLESFKFPGEILELQNGGRHHHLGTFNQIAPIKNSYIELLDVENESKLSNIAKTEEGRVSFATKIVQDHFKQGFKGICFRTKDINQVKSTLENRGVDVIGPIDMERENKKGHQIRWRLLYIANPDYTVKPPFFIEWDNNKKQNLSQIHNFNLSSFKIKEVIITSTQRETTVSLWKEWYNLKIVNETATSTDLKLETDEVIYKIEDGKDSGFHTLIMTDINATAPYSIFIRGAKYRFEPPN	not soluble

----------
# test-name: soluble on expression in E. coli; label from the status in PepcDB or PDB records
measure-name: soluble on expression in E. coli

sequence-string	experimental-value
GSGSRMKTVDKSKTLTKFEEFFSLQDYKDRVFEAIEKYPNVRSIEVDYLDLEMFDPDLADLLIEKPDDVIRAAQQAIRNIDRLRKNVDLNIRFSGISNVIPLRELRSKFIGKFVAVDGIVRKTDEIRPRIVKAVFECRGCMRHHAVTQSTNMITEPSLCSECGGRSFRLLQDESEFLDTQTLKLQEPLENLSGGEQPRQITVVLEDDLVDTLTPGDIVRVTGTLRTVRDERTKRFKNFIYGNYTEFLEQEFEELQISEEDEEKIKELAGDPNIYEKIIR	soluble
MAQYRPDELARYAQRVMDWLHPDGDLTDTERARKRGITLSNQQYDGMSRLSGYLTPQARATFEAVLAKLAAPGATNPDDHTPVIDTTPDAAAIDRDTRSQAQRNHDGLLAGLRALIASGELGQHNGLPVSIVVTTTLTDLQTGAGKGFTGGGTLLPMADVIRMTSHAHHYSPASGRYPQAIFDHGTPLALYHTKRLASPAQRIMLEHHHHHH	soluble
MQSFNSGSTKIHNAFPEESTRPQKAEGNTAMNILVLGSDSRGSSDADVEANTATDQRADTLMLVHVPADRKKTYAISLMRDLWIDIPGVGESKINAALAYGGVPLMVQTVESLLQQRIDHVAMIDFQGFKGLTDALGGVEVDVRIPFAPSSGPKAGQVYDAGKQTLNGDEALAFVRERKAFSDGDYQRVRNQQAYLKAIIGKVIARETLTNPVTISNMVSAVSPFVSVDKDFDAAAIGSLALSMKDVRAQDTVMFTLPTLGTGTSPDGQSIVLADTTAIADVTAALAKDQVDAYITAHALDKGFLEHHHHHH	soluble

----------
# test-name: soluble on expression in E. coli; label from the status in PepcDB or PDB records
measure-name: soluble on expression in E. coli

sequence-string	experimental-value
SLSAKDKANVKAIWGKILPKSDEIGEQALSRMLVVYPQTKAYFSHWASVAPGSAPVKKHGITIMNQIDDCVGHMDDLFGFLTKLSELHATKLRVDPTNFKILAHNLIVVIAAYFPAEFTPEIHLSVDKFLQQLALALAEKYR	soluble
MSLSVEQANLILNHLPMEITFVNKEDIFQYYNDNTPADEMIFKRTPSQVGRNVELCHPPKYLDKVKTIMKGLREGSKDKYEMWFKSESRGKFVHITYAAVHDEDGEFQGVLEYVQDIQPYREIDTDYFRGLEEGHHHHHH	soluble
MGSDKIHHHHHHAGFGVAGLSEKTYKTVLNTNMGALYSPSLSAQVVDGACYLINYELDLNSPENANAATNGYLTATISVADEITKGQPVFYNVPDSASLLQNEIPVKNLFSNGDYGVYVDGYLFFFITMDMFKDQKNSYTLYWDRSKEPTMVDNVPTYDLFLRVAKVADGTGSAASSIGEVRAFNVKSVLESVNSAEANKDSKSFNLKVNYLNTINEKDSTDLKWASYTVLFQVVKNS	not soluble
MGSDKIHHHHHHMLCNETTSTRDLILLGLKRHGERSVGEMAKELEITEMAVRRHIQALEKDGFVQTKLVRQAMGRPTTKYLLTEKGEERFPRNYLPLTLGFLKDIEELSGIDMIHVLFEKRKERLLAEYANQMKGCSFSERVEVLAQIQNDNGYMVEWKKIDDDTYQFIEYNCPISQVAKAYPVACACEKKLFKELLQTEAVVDNCCAAKDEAGYCSYTLKKPSVDG	not soluble

----------
# test-name: soluble on expression in E. coli; label from the status in PepcDB or PDB records

sequence-string	soluble on expression in E. coli
MENQPKLNSSKEVIAFLAERFPHCFSAEGEARPLKIGIFQDLVERVGGEMNLSKTQLRSALRLYTSSWRYLYGVKPGATRVDLDGNPCGELEEQHVEHARKQLEEAKARVQAQRAEQQAKKREAAAAAGEKEDAPRRERKPRPVARRKEGAERKPRADKPTTKAPRAPREEKHTPVSDISVLTVGQSLKVKAGNNAMDATVLEITKDGVRVQLNSGMSLIVRAEHLVF	not soluble
MAHHHHHHMSLAPNTGSVELKAYSAHASLLLARGERIDKRAFDECRLPAIVREERVGGATVAGAGDGSPQSSASSNMTSTYTVLDGKSLAAVMYTDAYGTCIQCTVQGLLGPPRPEQPAAGRLNVHVEAPFVEHLSGGATSTNYRSFQYMIASGNADLPLRQLEGYIGTVLDGCFDLSQLSIYAGEACWVLKVSVLLLSVDGGLRAGSLHAALAALHKLHLPRIRLPNGDVIEGRQVQLSCMPVACTFGFLAGAQVRLVADTTAIEEHVADGLITVVVDEAERILSVHHTGRCPLLAQALTAAAQQWAAASGSMRKALYG	not soluble

----------
# test-name: soluble on expression in E. coli; label from the status in PepcDB or PDB records

sequence-string	soluble on expression in E. coli
MSLNKKVVIDDVAKLAGVSKATISRYLNGKFEYMSEKTKDRIKESIEELNYRPNNIARSLKSNKSKLIGVVIADLTNPFSSIIIKGIGDECKARGYNMVIANSDNDVKQEEEYIKSLLDQRVEGIIVNSTGYNEEFLLSIKERGIPVSMVDRTFCEDKVDSVKSNNYDITVETINYLIDAGFNSLCFFTERLDNIKPRIERERAFIDVCSKRLKKENYNISVVDYSKAGNLEVNIYKFLNNYSGKKAIFAVNGVVLLHTLSAINKLNINVPKDLGICGYDNWGWAALIPPGITTISQPSYEMGSEAAKLVLDRIEGKASLGAVCKTLSAKLEIRGSTIPLNEGHHHHHH	not soluble
MQTIKNSLGQSHDYIKMFVKEGDTVVDATCGNGNDTAFLASLVGENGRVFGFDIQDKAIANTTKKLTDLNLIDRVTLIKDGHQNMDKYIDCPVKAVMFNLGYLPSGDHSISTRPETTIQALSKAMELLVTGGIITVVIYYGGDTGFEEKEKVLEFLKGVDQKKFIVQRTDFINQANCPPILVCIEKISLEHHHHHH	not soluble

Origin of values: the DeepSol protein solubility set
